biological target: AQ STING (G230A-R293Q) (Homo sapiens, UniProt Q86WV6, G230A/H232R/R293Q); construct: 8xHis (N, cleaved yes); SUMO (N, cleaved yes); made in house; test: Differential Scanning Fluorimetry with AQ STING; type: binding; conditions: thermal shift vs apoprotein; 150 μM CDN; truncated AQ STING 0.1 mg/ml
Sequence (Q86WV6 140-343 G230A/H232R/R293Q): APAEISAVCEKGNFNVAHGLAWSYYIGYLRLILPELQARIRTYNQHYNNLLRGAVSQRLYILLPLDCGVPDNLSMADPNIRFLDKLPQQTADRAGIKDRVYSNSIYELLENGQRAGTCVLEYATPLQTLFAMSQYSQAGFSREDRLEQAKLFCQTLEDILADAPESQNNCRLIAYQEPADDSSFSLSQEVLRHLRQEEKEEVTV
Outcome measure: DSF ΔTm AQ STING (°C)
Numbers only, in °C.

Would you please look over these solved cases?
INSERT INTO measurements (compound, outcome_measure, unit_abbrev, test_value) VALUES
  ('Nc1ncnc2c1ncn2[C@@H]1O[C@@H]2COP(=O)(S)O[C@H]3[C@@H](F)[C@H](n4cnc5c(N)ncnc54)O[C@@H]3COP(=O)(O)CO[C@H]2[C@H]1F (single isomer, unassigned) [Compound 11b]', 'DSF ΔTm AQ STING', '°C', 18.2),
  ('Nc1ncnc2c1ncn2[C@@H]1O[C@@H]2COP(=O)(O)O[C@H]3[C@@H](F)[C@H](n4cnc5c(N)ncnc54)O[C@@H]3COP(=O)(O)CO[C@H]2[C@H]1F', 'DSF ΔTm AQ STING', '°C', 16.1),
  ('Nc1nc2c(ncn2[C@@H]2O[C@@H]3COP(=O)(O)O[C@@H]4[C@H](O)[C@@H](COP(=O)(O)O[C@@H]2[C@@H]3O)O[C@H]4n2cnc3c(N)ncnc32)c(=O)[nH]1 [2′2′-cGAMP, reference compound]', 'DSF ΔTm AQ STING', '°C', 19.4);

Moving on to another compound below.
Ask: State its DSF ΔTm AQ STING: Nc1ncnc2c1ncn2[C@@H]1O[C@@H]2COP(=O)(O)O[C@H]3[C@@H](O)[C@H](n4cnc5c(N)ncnc54)O[C@@H]3COP(=O)(O)O[C@H]2[C@H]1O [3′3′-c-di-AMP, reference compound]
Result: 9.0
